Data provenance is ChEMBL document CHEMBL4350952.

- TARGET_SYSTEM: Phosphatidylinositol 4,5-bisphosphate 3-kinase catalytic subunit delta isoform (Homo sapiens, UniProt O00329)
- Sequence (O00329 whole entry, canonical isoform): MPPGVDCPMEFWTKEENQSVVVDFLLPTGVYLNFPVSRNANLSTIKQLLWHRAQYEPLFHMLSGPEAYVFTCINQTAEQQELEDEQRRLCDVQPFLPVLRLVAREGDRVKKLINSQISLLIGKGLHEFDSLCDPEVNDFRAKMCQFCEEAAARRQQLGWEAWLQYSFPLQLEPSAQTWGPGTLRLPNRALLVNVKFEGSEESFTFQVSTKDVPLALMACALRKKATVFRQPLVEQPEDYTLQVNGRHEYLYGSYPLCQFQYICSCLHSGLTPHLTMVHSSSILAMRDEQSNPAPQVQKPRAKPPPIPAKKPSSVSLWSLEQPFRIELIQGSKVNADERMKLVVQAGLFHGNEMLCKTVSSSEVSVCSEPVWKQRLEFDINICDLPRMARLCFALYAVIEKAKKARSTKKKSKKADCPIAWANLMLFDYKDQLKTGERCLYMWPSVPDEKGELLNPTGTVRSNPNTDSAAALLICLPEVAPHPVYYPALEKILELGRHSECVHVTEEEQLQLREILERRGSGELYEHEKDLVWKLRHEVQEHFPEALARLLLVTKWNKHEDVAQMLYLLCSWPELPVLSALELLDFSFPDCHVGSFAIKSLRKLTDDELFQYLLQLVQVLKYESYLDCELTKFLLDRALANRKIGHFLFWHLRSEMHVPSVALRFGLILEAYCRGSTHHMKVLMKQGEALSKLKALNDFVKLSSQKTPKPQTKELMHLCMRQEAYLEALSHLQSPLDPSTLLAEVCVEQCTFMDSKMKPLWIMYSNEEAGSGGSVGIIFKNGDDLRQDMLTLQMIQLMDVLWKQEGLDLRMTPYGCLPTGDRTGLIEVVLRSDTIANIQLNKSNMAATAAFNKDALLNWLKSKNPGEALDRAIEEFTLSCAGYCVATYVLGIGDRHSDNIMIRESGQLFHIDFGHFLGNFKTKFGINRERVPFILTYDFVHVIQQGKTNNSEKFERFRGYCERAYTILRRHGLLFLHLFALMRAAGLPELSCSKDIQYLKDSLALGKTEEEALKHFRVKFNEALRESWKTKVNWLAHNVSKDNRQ
READOUT_KIND: IC50 (nM)
Just the number please, in nM, no unit attached.

Data request: // returns reported IC50 for input CC[C@H](Nc1ncnc(N)c1-c1nnc(C)o1)c1nc2cccc(Cl)c2c(=O)n1-c1ccccc1
Data returned: 2

Data request: // returns reported IC50 for input Cc1ccn2nc([C@H](C)Nc3ncnc4[nH]cc(-c5ccc(O)c(CN6CCC(N(C)C)CC6)c5)c34)n(-c3ccccc3)c(=O)c12
Data returned: 0.43

Data request: // returns reported IC50 for input Cc1cccc2nc([C@H](C)Nc3ncnc4[nH]cc(-c5cccc(NS(C)(=O)=O)c5)c34)n(-c3ccccc3)c(=O)c12
Data returned: 0.04

Data request: // returns reported IC50 for input C[C@H](Nc1ncnc(N)c1-c1nnn[nH]1)c1nn2cccc2c(=O)n1-c1ccccc1
Data returned: 0.2

----------
- TARGET_SYSTEM: PI3-kinase p110-delta/p85-alpha (Homo sapiens, UniProt O00329)
- Sequence (P27986 whole entry): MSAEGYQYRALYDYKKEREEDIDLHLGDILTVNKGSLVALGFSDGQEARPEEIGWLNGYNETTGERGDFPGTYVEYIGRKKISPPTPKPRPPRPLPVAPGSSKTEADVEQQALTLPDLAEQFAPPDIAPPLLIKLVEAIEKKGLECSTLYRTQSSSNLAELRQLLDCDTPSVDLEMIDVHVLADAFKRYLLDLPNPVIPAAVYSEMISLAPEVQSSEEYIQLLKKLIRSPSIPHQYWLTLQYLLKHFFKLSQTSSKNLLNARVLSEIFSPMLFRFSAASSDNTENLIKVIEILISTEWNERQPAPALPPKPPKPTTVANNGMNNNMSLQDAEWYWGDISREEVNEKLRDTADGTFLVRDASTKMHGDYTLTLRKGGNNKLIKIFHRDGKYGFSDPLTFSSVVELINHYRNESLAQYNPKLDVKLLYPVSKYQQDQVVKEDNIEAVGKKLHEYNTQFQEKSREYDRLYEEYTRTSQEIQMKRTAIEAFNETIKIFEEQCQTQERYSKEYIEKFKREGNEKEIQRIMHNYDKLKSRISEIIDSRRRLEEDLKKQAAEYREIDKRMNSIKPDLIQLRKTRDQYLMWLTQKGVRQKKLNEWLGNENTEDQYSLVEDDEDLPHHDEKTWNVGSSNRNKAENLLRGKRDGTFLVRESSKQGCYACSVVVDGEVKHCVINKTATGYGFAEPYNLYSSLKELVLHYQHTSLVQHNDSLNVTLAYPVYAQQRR
- Sequence (O00329 whole entry): as the sequence (O00329 whole entry, canonical isoform) above
- ASSAY_REMARKS: Inhibition of N-terminal His6-tagged recombinant full length human p110delta/untagged recombinant full length human p85alpha expressed in baculovirus infected Sf21 insect cells after 60 mins by ADP-Glo assay
pIC50: −log10 of the molar value.
READOUT_KIND: pIC50

Data request: // returns reported pIC50 for input Cc1nn(C)c(-c2ccccc2)c1Cn1nc(-c2cc(O)cc(F)c2)c2c(N)ncnc21
Data returned: > 6.00

----------
- TARGET_SYSTEM: Phosphatidylinositol 3-kinase catalytic subunit type 3 (Homo sapiens)
- Sequence (Q8NEB9 whole entry): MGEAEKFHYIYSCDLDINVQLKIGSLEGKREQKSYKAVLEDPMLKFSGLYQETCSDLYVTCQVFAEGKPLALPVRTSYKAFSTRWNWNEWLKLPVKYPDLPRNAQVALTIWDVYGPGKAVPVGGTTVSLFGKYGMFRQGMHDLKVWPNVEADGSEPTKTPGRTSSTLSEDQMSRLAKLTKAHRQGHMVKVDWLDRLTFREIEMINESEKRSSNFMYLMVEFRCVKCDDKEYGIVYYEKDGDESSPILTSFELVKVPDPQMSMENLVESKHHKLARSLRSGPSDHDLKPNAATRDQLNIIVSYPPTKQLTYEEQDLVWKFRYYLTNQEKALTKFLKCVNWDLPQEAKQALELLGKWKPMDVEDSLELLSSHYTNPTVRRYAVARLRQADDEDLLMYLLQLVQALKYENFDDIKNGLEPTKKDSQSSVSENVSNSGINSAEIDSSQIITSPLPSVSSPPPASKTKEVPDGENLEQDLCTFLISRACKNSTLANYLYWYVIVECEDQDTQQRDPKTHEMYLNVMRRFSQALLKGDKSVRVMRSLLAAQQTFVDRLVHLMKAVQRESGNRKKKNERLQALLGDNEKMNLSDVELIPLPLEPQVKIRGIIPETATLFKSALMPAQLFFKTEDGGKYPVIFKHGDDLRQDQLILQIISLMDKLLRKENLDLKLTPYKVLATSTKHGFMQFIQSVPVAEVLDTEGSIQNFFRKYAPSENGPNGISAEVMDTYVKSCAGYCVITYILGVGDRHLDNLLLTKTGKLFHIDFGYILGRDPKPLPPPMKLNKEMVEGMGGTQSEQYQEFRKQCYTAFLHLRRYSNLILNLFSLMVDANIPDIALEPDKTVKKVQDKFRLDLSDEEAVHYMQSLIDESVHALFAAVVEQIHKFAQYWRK
- ASSAY_REMARKS: Inhibition of Vps34 (unknown origin)
READOUT_KIND: pIC50
Please keep in mind that pIC50 is minus log10 of the molar concentration; only the number is needed.

Data request: // returns reported pIC50 for input C[C@H](NC(=O)c1c(N)nn2cccnc12)c1cc2cccc(C#Cc3cnn(C)c3)c2c(=O)n1-c1ccccc1 [EGANELISIB]
Data returned: 4.40

----------
- TARGET_SYSTEM: PI3-kinase p110-delta/p85-alpha (Homo sapiens)
- ASSAY_REMARKS: Inhibition of N-terminal His6-tagged recombinant full length human p110delta/untagged recombinant full length human p85alpha expressed in baculovirus infected Sf21 insect cells after 80 mins by fluorescence polarization assay
READOUT_KIND: pIC50
Please keep in mind that pIC50 is minus log10 of the molar concentration; only the number is needed.

Data request: Observed pIC50 on PI3-kinase p110-delta/p85-alpha (Homo sapiens) for C[C@H]1CN(c2nc(N)nc3c2S(=O)(=O)CC3)[C@@H]1c1nn2ccc(Cl)c2c(=O)n1-c1ccccc1 , please.
Data returned: 8.40
